B1: KCNK9 (parent)
chain: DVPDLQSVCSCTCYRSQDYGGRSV

- Variants of: B1
- PROTOCOL: protein stability index of a GFP-peptide fusion (GPS, HEK-293T) (PSI 1-6); higher = more stable;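 also: lentivirally expressed fusions sorted by FACS into six bins by GFP to DsRed ratio, PSI derived from sequencing read proportions per bin multiplied by bin number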
- TEST CONTEXT: c terminus: a fixed tail appended
Measured protein stability index, listed per entry.
Form field (numeric): enter value without unit.

Example variants with recorded protein stability index:
>>> df
   mutant_id  numeric_readout
0       T12M             1.25
1        P3N             1.45
2        V8T             1.72
3        V2E             2.93
4       S10T             2.47
5       C13S             2.79
6        V2A             1.84
7        L5Y             1.71

Exam item: Param item = `S7E` ; retrieve measured protein stability index.
Marked response: 1.81

Exam item: Lookup `S16E`
Marked response: 1.79

Exam item: Similarly, `Q17T` ?
Marked response: 2.39

Exam item: Proceed to `G20A`
Marked response: 2.24

Exam item: Then this variant: `S10R`
Marked response: 1.33

Exam item: What about `V2D` ?
Marked response: 1.78

Exam item: Moving on to `R22Q`
Marked response: 3.22

Exam item: Param item: `Y19S`
Marked response: 1.81

Exam item: Cool, now `P3S`
Marked response: 1.99

Exam item: What about this variant? `L5G`
Marked response: 1.65

Exam item: What do we get for `D18K` ?
Marked response: 1.65

Exam item: How about this variant: `G21R`
Marked response: 1.62

Exam item: Same for `D18P`
Marked response: 1.67

Exam item: Now the variant `D18L`
Marked response: 1.73

Exam item: Could you do the same for `G20P` , please?
Marked response: 2.03

Exam item: Then `V2S` ?
Marked response: 2.19

Exam item: Moving on to the next variant: `Q6A`
Marked response: 1.65
